# Study system: plasma kallikrein (Homo sapiens, UniProt P03952)
# Construct: glandular kallikrein, factor XIIa and plasma kallikrein
# Sequence (P03952 391-638 limits assumed, species assumed): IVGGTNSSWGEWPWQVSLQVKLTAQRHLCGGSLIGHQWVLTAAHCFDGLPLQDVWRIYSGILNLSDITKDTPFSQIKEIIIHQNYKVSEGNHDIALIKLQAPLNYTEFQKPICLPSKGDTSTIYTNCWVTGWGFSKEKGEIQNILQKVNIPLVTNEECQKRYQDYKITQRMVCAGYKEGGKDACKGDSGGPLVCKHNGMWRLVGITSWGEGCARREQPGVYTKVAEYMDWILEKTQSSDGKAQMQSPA
# Sequence (P03952 20-390 partner limits assumed, species assumed): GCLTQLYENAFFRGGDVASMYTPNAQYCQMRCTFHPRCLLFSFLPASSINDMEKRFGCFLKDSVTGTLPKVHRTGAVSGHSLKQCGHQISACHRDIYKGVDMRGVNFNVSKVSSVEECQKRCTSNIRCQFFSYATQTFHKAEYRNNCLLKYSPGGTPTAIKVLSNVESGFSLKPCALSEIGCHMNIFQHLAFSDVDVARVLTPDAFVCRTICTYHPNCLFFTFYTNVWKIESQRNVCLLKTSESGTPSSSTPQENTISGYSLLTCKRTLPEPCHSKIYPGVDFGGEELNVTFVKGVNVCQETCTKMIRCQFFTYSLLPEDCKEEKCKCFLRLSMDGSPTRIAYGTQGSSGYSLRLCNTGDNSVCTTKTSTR
# Test: Inhibition of plasma kallikrein (Ki)
# Experimental parameters: Table 26

Compound | Modifier sign | Ki (µM)
N=C(N)c1cccc(CC(NS(=O)(=O)c2ccc3ccccc3c2)C(=O)N2Cc3ccccc3CC2C(=O)O)c1 (racemic) [Compound 134] | = | 1.5
COC(=O)[C@H](Cc1cccc(C(=N)N)c1)NC(=O)CNS(=O)(=O)c1ccc(C)cc1 [TAPAM, reference compound] | = | 15
CC1CCN(C(=O)C(Cc2cccc(C(=N)N)c2)NS(=O)(=O)c2cccc3cccnc23)CC1 (racemic) [Compound 171, hydroiodide] | > | 1000
N=C(NO)c1cccc(CC(NS(=O)(=O)c2ccc3ccccc3c2)C(=O)N2Cc3ccccc3CC2C(=O)O)c1 (racemic) [Compound 190, hydroiodide] | > | 1000
CC1CCN(C(=O)C(Cc2cccc(N)c2)NS(=O)(=O)c2ccc3ccccc3c2)CC1 (racemic) [Compound 203] | > | 1000
CN1CCN(C(=O)C(Cc2cccc(C(=N)N)c2)NS(=O)(=O)c2ccc3ccccc3c2)CC1 (racemic) [Compound 35] | = | 85

These data points were gathered from patent US5518735A.
